meta.source: the supplement of paper PMC7877785

- ASSAY_NOTES: self-splicing fitness, log relative to wild type (ln ratio); higher = more splicing; Tetrahymena group I intron in knt gene, E. coli kanamycin selection, DiMSum; sequences stand for … in CUCUCU…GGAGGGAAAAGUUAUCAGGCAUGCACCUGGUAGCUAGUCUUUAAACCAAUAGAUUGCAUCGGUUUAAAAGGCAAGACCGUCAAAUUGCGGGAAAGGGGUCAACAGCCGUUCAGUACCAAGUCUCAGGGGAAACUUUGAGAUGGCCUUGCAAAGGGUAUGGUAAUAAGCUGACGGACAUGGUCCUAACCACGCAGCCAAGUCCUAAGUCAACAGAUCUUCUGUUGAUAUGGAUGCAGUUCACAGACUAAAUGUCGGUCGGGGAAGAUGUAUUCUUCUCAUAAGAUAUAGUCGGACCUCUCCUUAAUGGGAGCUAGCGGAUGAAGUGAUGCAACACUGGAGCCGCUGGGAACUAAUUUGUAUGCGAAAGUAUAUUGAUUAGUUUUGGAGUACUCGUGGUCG;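 note: selection with 25 µg/mL kanamycin versus none on LB agar overnight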
- CONDITION_DESCRIPTION: 37 °C
REPORTED_PROPERTY: self-splicing fitness (ln)
I only need the number, thanks.

INSERT INTO assay_data (seq_text, reported) VALUES
  ('CAUCAGCAAUAUUACGUAUC', -1.05);

Return value of self-splicing fitness (ln) for input `UCAUAGCAAUAUUACGUUAU` , no commentary.
-2.21

Return value of self-splicing fitness (ln) for input `AUCUAGCAAUAUUACGUAGG` , no commentary.
-0.273

Return value of self-splicing fitness (ln) for input `UAGAAGCAAUAUUACGAGGC` , no commentary.
-2.21

Return value of self-splicing fitness (ln) for input `UACCAGCAAUAUUACGAACU` , no commentary.
-0.819

Return value of self-splicing fitness (ln) for input `GACUAGCAAUAUUACGUGAG` , no commentary.
-1.54

Return value of self-splicing fitness (ln) for input `AUUCAGCAAUAUUACGGUGG` , no commentary.
-1.58

Return value of self-splicing fitness (ln) for input `AAGUAGCAAUAUUACGAUAA` , no commentary.
-1.09

* * *

- ASSAY_NOTES: self-splicing fitness, log relative to wild type (ln ratio); higher = more splicing; Tetrahymena group I intron in knt gene, E. coli kanamycin selection, DiMSum; sequences stand for … in CUCUCU…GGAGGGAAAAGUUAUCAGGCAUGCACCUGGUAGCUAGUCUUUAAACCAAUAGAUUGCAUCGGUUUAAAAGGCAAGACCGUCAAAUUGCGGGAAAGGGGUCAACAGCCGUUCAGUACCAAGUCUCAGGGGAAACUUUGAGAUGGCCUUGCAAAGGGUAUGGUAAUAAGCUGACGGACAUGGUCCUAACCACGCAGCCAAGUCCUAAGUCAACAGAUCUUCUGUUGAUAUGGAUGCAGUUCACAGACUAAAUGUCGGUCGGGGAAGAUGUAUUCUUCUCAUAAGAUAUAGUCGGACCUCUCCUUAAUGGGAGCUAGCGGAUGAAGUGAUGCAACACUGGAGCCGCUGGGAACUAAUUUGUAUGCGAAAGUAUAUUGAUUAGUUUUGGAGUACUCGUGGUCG
- CONDITION_DESCRIPTION: 37 °C
class 1 means recorded self-splicing fitness (ln) is -1 or above; class 0 means it is below -1.

See these solved cases before continuing.
INSERT INTO assay_data (seq_text, qualitative_label) VALUES
  ('ACAAAGCAAUAUUACGGUGU', 'class 0'),
  ('CUCCAGCAAUAUUACGAAUU', 'class 0'),
  ('UAGUAGCAAUAUUACGACGU', 'class 1'),
  ('AGUUAGCAAUAUUACGACGA', 'class 1'),
  ('GGAGAGCAAUAUUACGCUAG', 'class 1');

Exam item: decide whether the reported self-splicing fitness (ln) for `CACGAGCAAUAUUACGGUGA` is at least -1.
class 0

Exam item: decide whether the reported self-splicing fitness (ln) for `AGGGAGCAAUAUUACGUGUG` is at least -1.
class 0

Exam item: decide whether the reported self-splicing fitness (ln) for `GCUAAGCAAUAUUACGGAUU` is at least -1.
class 0
